Kindly state pEC50 for each of the entries shown.
test system: FM3A; test: In vitro cytotoxic activity tested in mouse mammary tumor FM3A cells; type: functional, cell-based
One number for each entry, as −log10 of the molar value.

Worked examples, 10 molecules total:
{"columns": ["molecule", "val"],
 "data": [
  ["Cc1c2nc3ccccc3c-2ccn1C", 4.54],
  ["Cc1c2[nH]c3ccccc3c2cc[n+]1C.Cc1ccc(S(=O)(=O)[O-])cc1", 4.46],
  ["COc1ccc2c(c1)[nH]c1c(C)[n+](C)ccc12.Cc1ccc(S(=O)(=O)[O-])cc1", 4.72],
  ["CC1=NCCc2c1[nH]c1ccccc21", 4.35],
  ["COc1ccc2c(c1)[nH]c1c(C)nccc12 [HARMINE]", 4.74],
  ["COc1cnc(C)c2[nH]c3ccccc3c12", 4.74],
  ["C=Cc1ncc(OC)c2c1[nH]c1ccccc12", 5.42],
  ["CCOC(=O)c1c2[nH]c3ccccc3c2c(OC)c[n+]1C.Cc1ccc(S(=O)(=O)[O-])cc1", 4.66],
  ["C=Cc1c2[nH]c3ccccc3c2c(OC)c[n+]1C.Cc1ccc(S(=O)(=O)[O-])cc1", 5.08],
  ["COc1ccc2c3ccnc(C)c3n(C)c2c1", 4.49]
]}

// for each molecule in input: emit pEC50
1. COc1ccc2c3cc[n+](C)c(C)c3n(C)c2c1.Cc1ccc(S(=O)(=O)[O-])cc1
2. C=Cc1c2[nH]c3ccccc3c2c(OC)c[n+]1CC.Cc1ccc(S(=O)(=O)[O-])cc1
3. COc1c[n+](C)c(C)c2[nH]c3ccccc3c12.[I-]

Result:
[4.66, 5.00, 4.52]
